Where do these numbers come from? They come from PubChem BioAssay (NCATS).

# Test system: PC15
# measurement-description: qHTS profiling for inhibitors of Plasmodium falciparum proliferation (AID 504749); also: nearly all actives have a fitted effect of over 60% in size
# assay-context: P. falciparum in erythrocytes, SYBR Green DNA, 72 h; series mostly up to 28.7 µM
Inconclusive results are not listed. Calls of active or inactive are those of the source. Calls follow the shape of the dose curve; as a rule, active = well fitted inhibition curve with a large enough effect; inconclusive = small, poorly fitted or top-dose-only effect; inactive = flat fitted curve, though single readings scatter.
Field 'call' accepts active, inactive

Problem: Short answer needed: outcome of this test for "CCOc1ccc(NC(C)=O)cc1" ?
Solution: inactive

Further cases:
Problem: Short answer needed: outcome of this test for "NC(=O)n1c(O)c(C(=O)c2cccs2)c2cc(Cl)ccc21" ?
Solution: inactive

Problem: Short answer needed: outcome of this test for "CCCCCCCCCCCCSCCOCCO" ?
Solution: inactive

Problem: Short answer needed: outcome of this test for CC(C)CCCC(C)N (stereo unspecified) ?
Solution: inactive

Problem: Short answer needed: outcome of this test for "CCCN(CCC)S(=O)(=O)c1ccc(C(=O)O)cc1" ?
Solution: inactive

Problem: Short answer needed: outcome of this test for NC1CCN(c2nc3c(cc2F)c(=O)c(C(=O)O)cn3-c2ccc(F)cc2F)C1 (stereo unspecified) ?
Solution: inactive

Problem: Short answer needed: outcome of this test for "CCN1/C(=C/C=C/c2sc3ccccc3[n+]2CC)Sc2ccccc21" ?
Solution: active

Problem: Short answer needed: outcome of this test for CC[N+](C)(CC)CCOC(=O)C(O)(c1ccccc1)C1CCCCC1 (stereo unspecified) ?
Solution: inactive

Problem: Short answer needed: outcome of this test for COP(=O)(OC)OC(c1ccc(Cl)cc1)P(=O)(OC)OC (stereo unspecified) ?
Solution: inactive

Problem: Short answer needed: outcome of this test for CCC(C(=O)OCCOCCN(CC)CC)c1ccccc1 (stereo unspecified) ?
Solution: inactive

Problem: Short answer needed: outcome of this test for "O=C(Nc1cccc(C2=NCCN2)c1)Nc1cccc(C2=NCCN2)c1" ?
Solution: active

Problem: Short answer needed: outcome of this test for "CCCCCCCCCCCCCCCCO" ?
Solution: inactive

Problem: Short answer needed: outcome of this test for "CN1CCc2cccc3c2[C@H]1Cc1ccc(O)c(O)c1-3" ?
Solution: active

Problem: Short answer needed: outcome of this test for FC1(F)C(F)(F)C(F)(F)C2(F)C(F)(F)C(F)(F)C(F)(F)C(F)(F)C2(F)C1(F)F (stereo unspecified) ?
Solution: inactive

Problem: Short answer needed: outcome of this test for "CC(=O)NO" ?
Solution: inactive

----------
# measurement-description: qHTS of pediatric cancer cell lines to identify multiple opportunities for drug repurposing: Primary screen for U-2 OS cells (AID 1347096); also: nearly all actives have a fitted effect of over 50% in size
# assay-context: U-2 OS viability, CellTiter-Glo luminescence, 48 h; series mostly up to 46 µM
Records with an inconclusive call do not appear. The source made the active and inactive calls. Calls follow the shape of the dose curve; as a rule, active = well fitted cell-killing curve with a large enough effect; inconclusive = small, poorly fitted or top-dose-only effect; inactive = flat fitted curve, though single readings scatter.
value-kind: outcome

Completed entries (count: 5):
Problem: What measured outcome goes with COP(=O)(OC)OC(c1ccc(Cl)cc1)P(=O)(OC)OC (configuration not stated) ?
Solution: inactive

Problem: What measured outcome goes with "CC(C)Cn1cnc2c1c(=O)n(C)c(=O)n2C" ?
Solution: inactive

Problem: What measured outcome goes with "COc1ccc(CN(CCN(C)C)c2ncccn2)cc1" ?
Solution: inactive

Problem: What measured outcome goes with "C=C[C@H]1CN2CC[C@H]1C[C@@H]2[C@@H](O)c1ccnc2ccc(OC)cc12" ?
Solution: inactive

Problem: What measured outcome goes with "Cc1cn([C@H]2C[C@H](F)[C@@H](CO)O2)c(=O)[nH]c1=O" ?
Solution: inactive

Further cases:
Problem: What measured outcome goes with "Cc1cc(-c2ccccc2)nnc1NCCN1CCOCC1" ?
Solution: inactive

Problem: What measured outcome goes with "O=[N+]([O-])c1ccc(/C=N\O)o1" ?
Solution: inactive

Problem: What measured outcome goes with "CCCN(CCC)S(=O)(=O)c1ccc(C(=O)O)cc1" ?
Solution: inactive

Problem: What measured outcome goes with "CCOC(=O)c1c(N)sc2c1CCN(Cc1ccccc1)C2" ?
Solution: inactive

Problem: What measured outcome goes with "CNCCc1ccccn1" ?
Solution: inactive

Problem: What measured outcome goes with "C#C[C@]1(O)CC[C@H]2[C@@H]3CCC4=CC(=O)CC[C@@H]4[C@H]3CC[C@@]21CC" ?
Solution: inactive

Problem: What measured outcome goes with "CCCCCCCCCCCCSCCOCCO" ?
Solution: inactive
